// reported viability, T/C per item
tested on: 171881-019-R-J1-PDC tumor spheroid viability; test: Anticancer human tumor 171881-019-R-J1-PDC patient-derived invasive breast carcinoma cell line growth inhibition [PI3K]; settings: second compound 0.0316 µM; first compound 0.316 µM; hits give low values; spheroids with HUVEC and MSC
Observation type: viability, T/C (%)

compound="CC1(C)CCC(CN2CCN(c3ccc(C(=O)NS(=O)(=O)c4ccc(NCC5CCOCC5)c([N+](=O)[O-])c4)c(Oc4cnc5[nH]ccc5c4)c3)CC2)=C(c2ccc(Cl)cc2)C1 + CC(Nc1ccc2c(c1)OCCn1cc(N3C(=O)OCC3C(F)F)nc1-2)C(N)=O" system_name="171881-019-R-J1-PDC tumor spheroid viability" observation_type="viability, T/C" result_value=61.6
compound="CC1(C)CCC(CN2CCN(c3ccc(C(=O)NS(=O)(=O)c4ccc(NCC5CCOCC5)c([N+](=O)[O-])c4)c(Oc4cnc5[nH]ccc5c4)c3)CC2)=C(c2ccc(Cl)cc2)C1 + COc1c(OCCCN2CCOCC2)ccc2c3n(c(=NC(=O)c4cnc(N)nc4)nc12)CCN3" system_name="171881-019-R-J1-PDC tumor spheroid viability" observation_type="viability, T/C" result_value=26.7
compound="CCN1CCN(Cc2ccc(Nc3ncc(F)c(-c4cc(F)c5nc(C)n(C(C)C)c5c4)n3)nc2)CC1 + Cc1nc(NC(=O)N2CCCC2C(N)=O)sc1-c1ccnc(C(C)(C)C(F)(F)F)c1" system_name="171881-019-R-J1-PDC tumor spheroid viability" observation_type="viability, T/C" result_value=111
compound="C#Cc1c(F)ccc2cc(O)cc(-c3ncc4c(N5CC6CCC(C5)N6)nc(OCC56CCCN5CC(F)C6)nc4c3F)c12 (centres undefined) + CC(Nc1ncnc2nc[nH]c12)c1cc2cccc(Cl)c2c(=O)n1-c1ccccc1" system_name="171881-019-R-J1-PDC tumor spheroid viability" observation_type="viability, T/C" result_value=54

----------
// reported viability, T/C per item
system: 171881-019-R-J1-PDC tumor spheroid viability; experiment: Anticancer human tumor 171881-019-R-J1-PDC cell line growth inhibition [PI3K]; conditions: second compound 10 µM; first compound 10 µM; hits give low values; spheroids with HUVEC and MSC;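 note: spheroids exposed to compound for 7 days before viability read; 100% = DMSO vehicle-treated spheroids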
Observation type: viability, T/C (%)

molecule="C[C@@H](NC(=O)c1ncnc(N)c1Cl)c1ncc(C(=O)Nc2cc(C(F)(F)F)c(Cl)cn2)s1 + CC(Nc1ncnc2nc[nH]c12)c1cc2cccc(Cl)c2c(=O)n1-c1ccccc1" observation_type="viability, T/C" result_value=21.2
molecule="Cn1nccc1Nc1nccc(-c2ccn(C(CO)c3ccc(Cl)c(F)c3)c(=O)c2)n1 (stereo unspecified) + Cc1nc(NC(=O)N2CCCC2C(N)=O)sc1-c1ccnc(C(C)(C)C(F)(F)F)c1" observation_type="viability, T/C" result_value=0.53
molecule="C=CC(=O)N1CCN(c2nc(=O)n(-c3c(C)ccnc3C(C)C)c3nc(-c4c(O)cccc4F)c(F)cc23)C(C)C1 (stereo unspecified) + CC(Nc1ncnc2nc[nH]c12)c1cc2cccc(Cl)c2c(=O)n1-c1ccccc1" observation_type="viability, T/C" result_value=32
molecule="CNC(=O)c1ccc(N2C(=S)N(c3ccc(C#N)c(C(F)(F)F)c3)C(=O)C2(C)C)cc1F + Cc1nc(NC(=O)N2CCCC2C(N)=O)sc1-c1ccnc(C(C)(C)C(F)(F)F)c1" observation_type="viability, T/C" result_value=3.48
molecule="CCCS(=O)(=O)Nc1ccc(F)c(C(=O)c2c[nH]c3ncc(-c4ccc(Cl)cc4)cc23)c1F + Cc1nc(NC(=O)N2CCCC2C(N)=O)sc1-c1ccnc(C(C)(C)C(F)(F)F)c1" observation_type="viability, T/C" result_value=2.11
molecule="CC(C)NCC(C(=O)N1CCN(c2ncnc3c2C(C)CC3O)CC1)c1ccc(Cl)cc1 (stereo unspecified) + CC(Nc1ncnc2nc[nH]c12)c1cc2cccc(Cl)c2c(=O)n1-c1ccccc1" observation_type="viability, T/C" result_value=5.96

----------
Tested on: 171881-019-R-J1-PDC tumor spheroid viability
Assay: Anticancer human tumor 171881-019-R-J1-PDC cell line growth inhibition [PI3K];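 note: spheroids exposed to compound for 7 days before viability read; 100% = DMSO vehicle-treated spheroids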
Settings: second compound 0.316 µM; first compound 0.1 µM; hits give low values; spheroids with HUVEC and MSC
Source text: Combinatorial screen of targeted agents with the PI3K inhibitors inavolisib, alpelisib, duvelisib, and copanlisib in multi-cell type tumor spheroids A high-throughput screen of multi-cell type tumor spheroids was designed to identify active combinations of targeted small molecules and PI3K pathway inhibitors. […] Compounds. […] If the clinical Cmax for an agent had not been determined, the highest concentration tested was 10 microM. […]
Observation type: viability, T/C

molecule="CC(C)n1nc(-c2ccc3oc(N)nc3c2)c2c(N)ncnc21 + Cc1nc(NC(=O)N2CCCC2C(N)=O)sc1-c1ccnc(C(C)(C)C(F)(F)F)c1" system_name="171881-019-R-J1-PDC tumor spheroid viability" result_value=2.79%
molecule="CCN1CCN(Cc2ccc(Nc3ncc(F)c(-c4cc(F)c5nc(C)n(C(C)C)c5c4)n3)nc2)CC1 + CC(Nc1ccc2c(c1)OCCn1cc(N3C(=O)OCC3C(F)F)nc1-2)C(N)=O" system_name="171881-019-R-J1-PDC tumor spheroid viability" result_value=39.4%
molecule="CCN1CCN(Cc2ccc(Nc3ncc(F)c(-c4cc(F)c5nc(C)n(C(C)C)c5c4)n3)nc2)CC1 + CC(Nc1ncnc2nc[nH]c12)c1cc2cccc(Cl)c2c(=O)n1-c1ccccc1" system_name="171881-019-R-J1-PDC tumor spheroid viability" result_value=105%
molecule="C#Cc1c(F)ccc2cc(O)cc(-c3ncc4c(N5CC6CCC(C5)N6)nc(OCC56CCCN5CC(F)C6)nc4c3F)c12 (stereo unspecified) + COc1c(OCCCN2CCOCC2)ccc2c3n(c(=NC(=O)c4cnc(N)nc4)nc12)CCN3" system_name="171881-019-R-J1-PDC tumor spheroid viability" result_value=1.75%
molecule="Cn1ncc(Cl)c1-c1cc(C(=O)NC(CN)Cc2cccc(F)c2)sc1Cl (stereo unspecified) + COc1c(OCCCN2CCOCC2)ccc2c3n(c(=NC(=O)c4cnc(N)nc4)nc12)CCN3" system_name="171881-019-R-J1-PDC tumor spheroid viability" result_value=1.87%
molecule="CC(C)n1nc(-c2ccc3oc(N)nc3c2)c2c(N)ncnc21 + CC(Nc1ncnc2nc[nH]c12)c1cc2cccc(Cl)c2c(=O)n1-c1ccccc1" system_name="171881-019-R-J1-PDC tumor spheroid viability" result_value=3.31%
molecule="CC1(C)CCC(Nc2ncc(C(F)(F)F)c(-c3c[nH]c4c(P(C)(C)=O)c(C#N)ccc34)n2)CN1 (stereo unspecified) + Cc1nc(NC(=O)N2CCCC2C(N)=O)sc1-c1ccnc(C(C)(C)C(F)(F)F)c1" system_name="171881-019-R-J1-PDC tumor spheroid viability" result_value=49%
molecule="C[C@@H](NC(=O)c1ncnc(N)c1Cl)c1ncc(C(=O)Nc2cc(C(F)(F)F)c(Cl)cn2)s1 + CC(Nc1ccc2c(c1)OCCn1cc(N3C(=O)OCC3C(F)F)nc1-2)C(N)=O" system_name="171881-019-R-J1-PDC tumor spheroid viability" result_value=24.5%
molecule="Cn1nccc1Nc1nccc(-c2ccn(C(CO)c3ccc(Cl)c(F)c3)c(=O)c2)n1 (stereo unspecified) + CC(Nc1ncnc2nc[nH]c12)c1cc2cccc(Cl)c2c(=O)n1-c1ccccc1" system_name="171881-019-R-J1-PDC tumor spheroid viability" result_value=89.6%
molecule="CC(C)NCC(C(=O)N1CCN(c2ncnc3c2C(C)CC3O)CC1)c1ccc(Cl)cc1 (stereo unspecified) + CC(Nc1ncnc2nc[nH]c12)c1cc2cccc(Cl)c2c(=O)n1-c1ccccc1" system_name="171881-019-R-J1-PDC tumor spheroid viability" result_value=82.8%
molecule="CC(=O)c1c(C)c2cnc(Nc3ccc(N4CCNCC4)cn3)nc2n(C2CCCC2)c1=O + CC(Nc1ccc2c(c1)OCCn1cc(N3C(=O)OCC3C(F)F)nc1-2)C(N)=O" system_name="171881-019-R-J1-PDC tumor spheroid viability" result_value=29%

----------
// reported viability, T/C per item
test system: 171881-019-R-J1-PDC tumor spheroid viability; assay: Anticancer human tumor 171881-019-R-J1-PDC cell line growth inhibition [PI3K]; settings: second compound 0.0316 µM; first compound 10 µM; hits give low values; spheroids with HUVEC and MSC;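 note: spheroids exposed to compound for 7 days before viability read; 100% = DMSO vehicle-treated spheroids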
Observation type: viability, T/C

compound="C=CC(=O)N1CCN(c2nc(=O)n(-c3c(C)ccnc3C(C)C)c3nc(-c4c(O)cccc4F)c(F)cc23)C(C)C1 (stereo not given) + CC(Nc1ncnc2nc[nH]c12)c1cc2cccc(Cl)c2c(=O)n1-c1ccccc1" result_value=58.9%
compound="C#Cc1c(F)ccc2cc(O)cc(-c3ncc4c(N5CC6CCC(C5)N6)nc(OCC56CCCN5CC(F)C6)nc4c3F)c12 (stereo not given) + CC(Nc1ccc2c(c1)OCCn1cc(N3C(=O)OCC3C(F)F)nc1-2)C(N)=O" result_value=12.7%
compound="CC1(C)CCC(Nc2ncc(C(F)(F)F)c(-c3c[nH]c4c(P(C)(C)=O)c(C#N)ccc34)n2)CN1 (stereo not given) + COc1c(OCCCN2CCOCC2)ccc2c3n(c(=NC(=O)c4cnc(N)nc4)nc12)CCN3" result_value=1.05%
compound="C=CC(=O)N1CCN(c2nc(=O)n(-c3c(C)ccnc3C(C)C)c3nc(-c4c(O)cccc4F)c(F)cc23)C(C)C1 (stereo not given) + COc1c(OCCCN2CCOCC2)ccc2c3n(c(=NC(=O)c4cnc(N)nc4)nc12)CCN3" result_value=13.3%
compound="CCCS(=O)(=O)Nc1ccc(F)c(C(=O)c2c[nH]c3ncc(-c4ccc(Cl)cc4)cc23)c1F + COc1c(OCCCN2CCOCC2)ccc2c3n(c(=NC(=O)c4cnc(N)nc4)nc12)CCN3" result_value=5.59%
